- assay-comment: Acute toxicity (LD50) in BDF1 male mice, i.p. or i.v., Litchfield-Wilcoxon's method
- Type: in vivo
- condition-label: mouse, in vivo, ip, BDF1 male mice about 6 weeks old, observed after 21 days
endpoint-name: LD50 at 504 h

Which measured LD50 at 504 h value corresponds to `NC(=O)CNC(=O)N(CCCl)N=O` ?
21.2 mg/kg
